- Tested on: MS-1 cells
- Assay text: [Ca2+]i mobilization assay in MS-1 cells
- Assay type: cell-based, murine
- Applied conditions: three experiments, read-out: Mean EC50 (μM), dose-dependent changes in intracellular Ca2+
Where a SMILES comes first, the peptide text is derived from it. [ ]: non-standard residue; d: D form.
Mark Y only for EC50 values smaller than 1 µM; exact matches and larger values are N.

Compound	System name	Label class
CC(C)C[C@H](NC(=O)[C@H](CCCCN)NC(=O)[C@H](Cc1ccccc1)NC(=O)[C@@H](N)CO)C(N)=O [SEQ ID NO 13, SFKL-NH2] (H-SFKL-NH2; N-terminus assumed)	MS-1 cells	N
CC(C)C[C@H](NC(=O)[C@H](CCCCN)NC(=O)[C@H](Cc1ccccc1)NC(=O)[C@@H](N)CO)C(=O)N[C@@H](CCCNC(=N)N)C(N)=O [SEQ ID NO 12, SFKLR-NH2] (H-SFKLR-NH2; N-terminus assumed)	MS-1 cells	N
CC(C)C[C@H](NC(=O)[C@H](CCCCN)NC(=O)[C@H](Cc1ccccc1)NC(=O)[C@@H](N)CO)C(=O)N[C@H](CCCNC(=N)N)C(=O)N[C@@H](Cc1ccc(O)cc1)C(N)=O [SEQ ID NO 7, SFKLrY-NH2(d-form)] (H-SFKL[dR]Y-NH2; N-terminus assumed)	MS-1 cells	N
CC(C)C[C@H](NC(=O)[C@H](CCCCN)NC(=O)[C@H](Cc1ccccc1)NC(=O)[C@@H](N)CO)C(=O)N[C@@H](CCCNC(=N)N)C(=O)N[C@@H](Cc1ccc(O)cc1)C(N)=O [SEQ ID NO 2, SFKLRY-NH2] (H-SFKLRY-NH2; N-terminus assumed)	MS-1 cells	N
CC[C@H](C)[C@H](NC(=O)[C@H](Cc1ccccc1)NC(=O)[C@@H](N)CO)C(=O)N[C@@H](CC(C)C)C(=O)N[C@@H](CCCNC(=N)N)C(=O)N[C@@H](Cc1c[nH]c2ccccc12)C(N)=O [SEQ ID NO 20, SFILRW-NH2] (H-SFILRW-NH2; N-terminus assumed)	MS-1 cells	N
CC(C)C[C@H](NC(=O)[C@H](CCCCN)NC(=O)[C@H](Cc1ccccc1)NC(=O)[C@@H](N)CO)C(=O)N[C@@H](CCCNC(=N)N)C(=O)N[C@@H](Cc1c[nH]cn1)C(N)=O [SEQ ID NO 23, SFKLRH-NH2] (H-SFKLRH-NH2; N-terminus assumed)	MS-1 cells	N
CC[C@H](C)[C@H](NC(=O)[C@H](Cc1ccccc1)NC(=O)[C@@H](N)CO)C(=O)N[C@@H](CC(C)C)C(=O)N[C@@H](CCCNC(=N)N)C(=O)N[C@@H](CCCNC(=N)N)C(N)=O [SEQ ID NO 18, SFILRR-NH2] (H-SFILRR-NH2; N-terminus assumed)	MS-1 cells	Y
CC(C)C[C@H](NC(=O)[C@H](CCCNC(=N)N)NC(=O)[C@H](Cc1ccccc1)NC(=O)[C@@H](N)CO)C(=O)N[C@@H](CCCNC(=N)N)C(=O)N[C@@H](Cc1ccc(O)cc1)C(N)=O [SEQ ID NO 15, SFRLRY-NH2] (H-SFRLRY-NH2; N-terminus assumed)	MS-1 cells	Y

# credit: patent US9925398B2
